test system: Muscle tissue; assay: Biodistribution in ICR mouse muscle at 5 to 10 uCi, iv after 2 hrs; type: ADME, organism-based; settings: in vivo
readout.label: Drug uptake (% ID/g)
Numbers only, in % ID/g.

Quick batch: Drug uptake for everything below.
1. CN(C)c1ccc(-c2cn(-c3ccc([125I])cc3)nn2)cc1
2. CNc1ccc(-c2cn(-c3ccc([125I])cc3)nn2)cc1
3. CN(C)c1ccc(-c2cn(-c3ccc(OCC[18F])cc3)nn2)cc1
4. CN(C)c1ccc(-c2cn(-c3ccc(OCCC[18F])cc3)nn2)cc1

0.36
0.47
1.11
0.1

* * *

tested on: Kidney; assay: Biodistribution in ICR mouse kidney at 5 to 10 uCi, iv after 2 hrs; assay type: ADME, organism-based; settings: in vivo
Would you kindly list Drug uptake for each of these compounds?
Numbers only, in % ID/g.

CN(C)c1ccc(-c2cn(-c3ccc(OCC[18F])cc3)nn2)cc1 ... 2.01
CNc1ccc(-c2cn(-c3ccc([125I])cc3)nn2)cc1 ... 2.91
CN(C)c1ccc(-c2cn(-c3ccc([125I])cc3)nn2)cc1 ... 1.52

Kindly indicate its recorded Drug uptake. Item: CN(C)c1ccc(-c2cn(-c3ccc(OCCC[18F])cc3)nn2)cc1 0.35
